# Assay remarks: gradient 5% acetonitrile 3 min, to 50% in 2 min, to 85% in 15 min, held 3 min, 100 µL/min
# Experimental context: column: Zorbax Extend-C18 2.1 x 50 mm; eluents: water / acetonitrile, 0.1% formic acid
Value type: RP-LC retention time
Give the figure together with its unit, number first.

Request: Let me know recorded RP-LC retention time for CCn1cnc(S(=O)(=O)N2CCCC(C(=O)NCc3ccccc3)C2)c1 (stereo not given) , thanks.
Response: 768 s

Request: Let me know recorded RP-LC retention time for COc1ccc(Cc2nc(Cn3ccnc3)no2)cc1OC , thanks.
Response: 592 s

Request: Let me know recorded RP-LC retention time for O=C(c1cc(F)ccc1F)N1CCN(C(=O)c2nnn3c2COC(c2ccccc2)C3)CC1 (stereo not given) , thanks.
Response: 817 s

Request: Let me know recorded RP-LC retention time for COc1ccc(C(=O)N2CCc3nc(CNC(=O)C4CCC4)n(C)c3C2)cn1 , thanks.
Response: 585 s

Request: Let me know recorded RP-LC retention time for O=C(Nc1cccs1)Nc1ccccc1NC(=O)c1ccco1 , thanks.
Response: 716 s

Request: Let me know recorded RP-LC retention time for Cc1nn(C(C)C(=O)NC2CCC(C)CC2)c(=O)c2nn(-c3ccccc3)c(C)c12 (stereo not given) , thanks.
Response: 962 s

Request: Let me know recorded RP-LC retention time for Cc1noc(C2CN(C(=O)Nc3ccc(C)c(C)c3)CC23CCOCC3)n1 (stereo not given) , thanks.
Response: 768 s

Request: Let me know recorded RP-LC retention time for COc1ccc(OC)c(NC(=O)N2CCCn3nc(-c4cccs4)cc3C2)c1 , thanks.
Response: 867 s

Request: Let me know recorded RP-LC retention time for O=C(c1cccs1)N1CCN(c2ccc(=O)n(-c3ccccc3)n2)CC1 , thanks.
Response: 733 s

Request: Let me know recorded RP-LC retention time for COc1ncccc1CNC(=O)c1cc(Cl)ccc1F , thanks.
Response: 1180 s

Request: Let me know recorded RP-LC retention time for CC(C)Cc1ccc(S(=O)(=O)N2CC(c3nc(-c4ccncc4)nn3C)C2)cc1 , thanks.
Response: 787 s

Request: Let me know recorded RP-LC retention time for CCOC(=O)c1nc2cc(C)c(C)cc2nc1N1CCN(c2ccccn2)CC1 , thanks.
Response: 730 s

Request: Let me know recorded RP-LC retention time for CCOC(=O)C1=C(CN2CCOCC2)NC(=O)NC1c1ccc(OC(C)C)cc1 (stereo not given) , thanks.
Response: 628 s

Request: Let me know recorded RP-LC retention time for Cc1ccccc1-c1noc(Cn2ccn(-c3ccccc3)c(=O)c2=O)n1 , thanks.
Response: 834 s

Request: Let me know recorded RP-LC retention time for CC(C)n1nnc2cc(S(=O)(=O)N3CCCC(C(=O)N(C)Cc4ccccc4)C3)ccc21 (stereo not given) , thanks.
Response: 940 s

Request: Let me know recorded RP-LC retention time for CCCn1cc(S(=O)(=O)NCc2ccccc2Cl)c2cccnc21 , thanks.
Response: 912 s

Request: Let me know recorded RP-LC retention time for COc1ccc(-n2c(=O)c3sccc3n(Cc3nc(-c4ccccc4OC)no3)c2=O)cc1 , thanks.
Response: 856 s

Request: Let me know recorded RP-LC retention time for COc1ccc2nc(-c3ccc(C)c(NS(=O)(=O)c4cc(C)ccc4OC)c3)cn2n1 , thanks.
Response: 812 s

Request: Let me know recorded RP-LC retention time for CCCn1ccc2sc(C)c(C(=O)N3CCCCC3)c2c1=O , thanks.
Response: 760 s

Request: Let me know recorded RP-LC retention time for O=C(NCC1(CO)CC1)C(=O)Nc1cccc(N2CCCCC2=O)c1 , thanks.
Response: 610 s

---

# Assay remarks: gradient 5% acetonitrile 3 min, to 50% in 2 min, to 85% in 15 min, held 3 min, 100 µL/min
# Experimental context: column: Zorbax Extend-C18 2.1 x 50 mm; eluents: water / acetonitrile, 0.1% formic acid
Bucketed by reported RP-LC retention time, buckets being interval 1: < 700 s; interval 2: ≥ 700 s and < 900 s; interval 3: ≥ 900 s

Request: Determine which band this compound sits in: Cc1ccc(Nc2c(-c3ccc4c(c3)OCO4)nc3cnccn23)c(Br)c1
Response: interval 3

Request: Determine which band this compound sits in: CC1(c2cccc3ccccc23)OC(=O)c2ccccc21 (stereo not given)
Response: interval 3

Request: Determine which band this compound sits in: O=C(COc1ccccc1)N1CC(F)(F)C[C@H]1c1nnc(C2CC2)o1
Response: interval 2

Request: Determine which band this compound sits in: COc1ccc(OC)c(NC(=O)N2CCc3c(c(C(=O)N4CCOCC4)nn3C)C2)c1
Response: interval 1

Request: Determine which band this compound sits in: CC(NC(=O)c1ccco1)c1nc2ccccc2n1CC(=O)N1CCOCC1 (stereo not given)
Response: interval 1

Request: Determine which band this compound sits in: COCCn1cc2c3c(cccc31)CN(C(=O)Nc1cc(Cl)ccc1OC)CC2
Response: interval 3

Request: Determine which band this compound sits in: CC(C)CCNC(=O)CN1C(=O)C2CCCCN2c2ccc(C(=O)N(C)C)cc21 (stereo not given)
Response: interval 2

Request: Determine which band this compound sits in: COc1ccc(S(=O)(=O)N2CCN=C2SCc2cccnc2)cc1
Response: interval 1

Request: Determine which band this compound sits in: Cn1cnc2c(F)c(Nc3ccc(Br)cc3Cl)c(C(=O)NOCCO)cc21
Response: interval 2

Request: Determine which band this compound sits in: COc1ccc2c(Sc3ccccc3)c(C(=O)N3CCN(c4ccccn4)CC3)[nH]c2c1
Response: interval 2

Request: Determine which band this compound sits in: CC(C)c1cc(C(=O)Nc2ccc(F)c(Cl)c2)nc2ccnn12
Response: interval 3

Request: Determine which band this compound sits in: CCC1CCCCN1CCCNC(=O)CCc1cc2cc(C)ccc2[nH]c1=O (stereo not given)
Response: interval 1

Request: Determine which band this compound sits in: CCn1nc(CNC(=O)c2ccc(F)cc2)c2ccccc21
Response: interval 2

Request: Determine which band this compound sits in: CCOC(=O)c1c(C)oc2nc(C)nc(NCc3cccc(Cl)c3)c12
Response: interval 3

Request: Determine which band this compound sits in: O=C(C1CC(=O)N(c2n[nH]c3ccccc23)C1)N1CCN(c2ccc(Cl)cc2)CC1 (stereo not given)
Response: interval 2

Request: Determine which band this compound sits in: O=C(CSc1nnc2c3cc(-c4ccc(F)cc4)nn3ccn12)NCc1ccco1
Response: interval 2

Request: Determine which band this compound sits in: CCCNC(=O)C1CCN(Cc2cn(C)c3ccc(Cl)cc23)CC1
Response: interval 1

Request: Determine which band this compound sits in: CC(C)N1CCN(C(=O)c2cn(-c3cc(N4CCSCC4)ncn3)cn2)CC1
Response: interval 1

Request: Determine which band this compound sits in: CN1CCN(CCNC(=O)C2c3ccccc3C(=O)N(C3CCCC3)C2c2cccs2)CC1 (stereo not given)
Response: interval 1

Request: Determine which band this compound sits in: O=C(CC1CCCC1)NCCC1CCN(C(=O)Nc2ccccc2)CC1
Response: interval 2

Request: Determine which band this compound sits in: CCC(=O)N1CCc2c(C(=O)N3CCN(c4ccccn4)CC3)cccc21
Response: interval 1

Request: Determine which band this compound sits in: Cc1ccsc1CN1CCC(Cn2c(C)cnc2C)CC1
Response: interval 1

Request: Determine which band this compound sits in: CCCCCC(=O)N1CCCC1
Response: interval 2

Request: Determine which band this compound sits in: Clc1nccc2c1ccc1ccccc12
Response: interval 3

Request: Determine which band this compound sits in: O=C1C2N=NN(Cc3nc(-c4ccc5c(c4)OCO5)no3)C2C(=O)N1c1ccc2c(c1)CCC2 (stereo not given)
Response: interval 3

Request: Determine which band this compound sits in: O=C(NC1CCN(c2cc(-c3ccc(F)cc3)[nH]n2)C1)c1cccc(Br)c1 (stereo not given)
Response: interval 2

Request: Determine which band this compound sits in: Cc1ccc(C(=O)N2CC(n3cc(COc4ccc(F)cc4)nn3)C2)c(=O)[nH]1
Response: interval 1

Request: Determine which band this compound sits in: O=C1CCc2cc(NS(=O)(=O)Cc3cccc(Cl)c3)ccc2N1
Response: interval 3

Request: Determine which band this compound sits in: Cc1ccc(CN2CCC(CNC(=O)C3CCCN(c4cc(=O)n(C)c(=O)n4C)C3)CC2)cc1 (stereo not given)
Response: interval 1

Request: Determine which band this compound sits in: Cc1ccc(NC(=O)C2CC(=O)N(c3n[nH]c4cc(Br)ccc34)C2)cc1 (stereo not given)
Response: interval 2

---

Please go through the items and note down their RP-LC retention time.
# Assay remarks: gradient 5% acetonitrile 3 min, to 50% in 2 min, to 85% in 15 min, held 3 min, 100 µL/min
# Experimental context: column: Zorbax Extend-C18 2.1 x 50 mm; eluents: water / acetonitrile, 0.1% formic acid
I only need the number, in s, no unit after it.

Request: Let me know recorded RP-LC retention time for CS(=O)(=O)N1CCC(OC2CCN(C(=O)c3cccnc3)CC2)CC1 , thanks.
Response: 583

Request: Let me know recorded RP-LC retention time for CCN1C(=O)C2CC3(CCN(C(=O)Nc4ccc5c(c4)OCCO5)CC3)CN2C1=O (stereo not given) , thanks.
Response: 706

Request: Let me know recorded RP-LC retention time for Cn1c(CNC(=O)C2(Cc3ccccc3)CCCCC(=O)N2)nc2ccccc21 (stereo not given) , thanks.
Response: 630

Request: Let me know recorded RP-LC retention time for Cc1ccc(Nc2c(-c3cccc(Br)c3)nc3c(C)cccn23)cc1 , thanks.
Response: 843

Request: Let me know recorded RP-LC retention time for Cc1ccc(NS(=O)(=O)c2cc3c4c(c2)CCC(=O)N4CCC3)cc1C , thanks.
Response: 880
